Please respond with reported pIC50 for every item in the list.
# test.description: Antiproliferative activity against Con A-induced BALB/c mouse T cell after 48 hrs by CCK8 assay
# Type: functional, tissue-based, T cell line
pIC50 here is simply -log10 of the concentration when that concentration is written in mol/L.

Inquiry: Which measured pIC50 value corresponds to CC1=C(O)C(=O)C=C2C1=CC=C1[C@@]2(C)CC[C@@]2(C)[C@@H]3C[C@](C)(C(=O)On4nnc5ccccc54)CC[C@]3(C)CC[C@]12C ?
Reply text: 5.73

Inquiry: Which measured pIC50 value corresponds to CC1=C(O)C(=O)C=C2C1=CC=C1[C@@]2(C)CC[C@@]2(C)[C@@H]3C[C@](C)(C(=O)OCc4cccc(C)c4)CC[C@]3(C)CC[C@]12C ?
Reply text: 5.80

Inquiry: Which measured pIC50 value corresponds to CC1=C(O)C(=O)C=C2C1=CC=C1[C@@]2(C)CC[C@@]2(C)[C@@H]3C[C@](C)(C(=O)OCc4ccc(C(F)(F)F)cc4)CC[C@]3(C)CC[C@]12C ?
Reply text: 5.31

Inquiry: Which measured pIC50 value corresponds to COCCOC(=O)[C@]1(C)CC[C@]2(C)CC[C@]3(C)C4=CC=C5C(=CC(=O)C(O)=C5C)[C@]4(C)CC[C@@]3(C)[C@@H]2C1 ?
Reply text: 6.34

Inquiry: Which measured pIC50 value corresponds to CC1=C(O)C(=O)C=C2C1=CC=C1[C@@]2(C)CC[C@@]2(C)[C@@H]3C[C@](C)(C(=O)NCc4ccccc4)CC[C@]3(C)CC[C@]12C ?
Reply text: 6.44

Inquiry: Which measured pIC50 value corresponds to CC1=C(O)C(=O)C=C2C1=CC=C1[C@@]2(C)CC[C@@]2(C)[C@@H]3C[C@](C)(C(=O)OCCBr)CC[C@]3(C)CC[C@]12C ?
Reply text: 6.14

Value source: ChEMBL document CHEMBL4665764
